B1: tRNA (parent)
chain: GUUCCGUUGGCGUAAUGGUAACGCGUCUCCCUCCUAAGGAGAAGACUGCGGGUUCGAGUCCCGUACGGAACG

- Variants of: B1
- assay_details: yeast fitness, log relative to wild type (ln ratio); higher = fitter; tRNA-Arg(CCU), competitive growth, 37 C, 1 M NaCl
reported_metric: yeast fitness (ln)
Lab note: write the figure by itself, no unit.

* U2C G6U A43C | -0.0574

Check the records and state yeast fitness (ln) for G6A C27U C46U A69G A70G
-0.237
